The measurements presented in this section are drawn from the Human Domainome abundance scans (Beltran et al. 2025).

B1: Pre-mRNA-processing factor 40 homolog B, residues 274 to 332; numbered along this chain, Q6NWY9 (parent)
chain: SNREKAKQAFKELLRDKAVPSNASWEQAMKMVVTDPRYSALPKLSEKKQAFNAYKAQRE

# Variants of: B1
# procedure.text: abundance fitness (aPCA) (normalised: wild type 0, dead -1); higher = more abundant; growth selection in yeast, the domain comes from the species named
# conditions: Homo sapiens
Classification by abundance fitness follows these ranges: low bin = under -0.3, mid bin = from -0.3 up to -0.1, high bin = -0.1 and over

Qu. Any idea which band V33P is in?
Ans. low bin

Qu. What do you have for V19E ?
Ans. low bin

Qu. Next: K17R
Ans. mid bin

Qu. Try S1M next.
Ans. low bin

Qu. Field entry: K11T
Ans. high bin

Qu. What do you have for L44A ?
Ans. mid bin

Qu. Follow-up entry: A9L
Ans. high bin

Qu. Param item: A9I
Ans. high bin

Qu. # iterate: W25C
Ans. mid bin

Qu. Now the same for R3H
Ans. mid bin

Qu. Further, for V32C ?
Ans. mid bin
